run_description: total protein half-life in vivo (active degradation + dilution); higher = more stable protein
study_conditions: wild type E. coli NCM3722; growth: C-lim chemostat; doubling time 6 h
quantity_name: total protein half-life in vivo (min)

1. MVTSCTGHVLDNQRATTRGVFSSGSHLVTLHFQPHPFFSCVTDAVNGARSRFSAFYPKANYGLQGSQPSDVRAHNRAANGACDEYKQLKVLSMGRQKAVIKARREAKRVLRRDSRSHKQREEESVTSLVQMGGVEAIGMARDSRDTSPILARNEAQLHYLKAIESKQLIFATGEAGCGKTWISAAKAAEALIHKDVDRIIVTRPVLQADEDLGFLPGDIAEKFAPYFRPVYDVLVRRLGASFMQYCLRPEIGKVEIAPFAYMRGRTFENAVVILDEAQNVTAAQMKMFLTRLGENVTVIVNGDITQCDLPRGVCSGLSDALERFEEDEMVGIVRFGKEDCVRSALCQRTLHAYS [P0A9K1]; 20.8

====

run_description: total protein half-life in vivo (active degradation + dilution); higher = more stable protein
study_conditions: wild type E. coli NCM3722; growth: P-lim chemostat; doubling time 12 h
quantity_name: total protein half-life in vivo (h)

1. MKKNQFLKESDVTAESVFFMKRRQVLKALGISATALSLPHAAHADLLSWFKGNDRPPAPAGKALEFSKPAAWQNNLPLTPADKVSGYNNFYEFGLDKADPAANAGSLKTDPWTLKISGEVAKPLTLDHDDLTRRFPLEERIYRMRCVEAWSMVVPWIGFPLHKLLALAEPTSNAKYVAFETIYAPEQMPGQQDRFIGGGLKYPYVEGLRLDEAMHPLTLMTVGVYGKALPPQNGAPVRLIVPWKYGFKGIKSIVSIKLTRERPPTTWNLAAPDEYGFYANVNPYVDHPRWSQATERFIGSGGILDVQRQPTLLFNGYAAQVASLYRGLDLRENF; 11.9
2. MRIGHGFDVHAFGGEGPIIIGGVRIPYEKGLLAHSDGDVALHALTDALLGAAALGDIGKLFPDTDPAFKGADSRELLREAWRRIQAKGYTLGNVDVTIIAQAPKMLPHIPQMRVFIAEDLGCHMDDVNVKATTTEKLGFTGRGEGIACEAVALLIKATK; 12.9
3. MSEKVVFSQLSRKFIDENDATPAEAQQVVYYSLAIGHHLGVIDCLEAALTCPWDEYLAWIATLEAGSEARRKMEGVPKYGEIVIDINHVPMLANAFDKARAAQTSQQQEWSTMLLSMLHDIHQENAIYLMVRRLRD [P0AEV7]; 6.49
4. MYHDVSYLLSRLINGPLSLRQIYFASSNGPVPDLAYQVDFPRLEIVLEGEFVDTGAGATLVPGDVLYVPAGGWNFPQWQAPATTFSVLFGKQQLGFSVVQWDGKQYQNLAKQHVARRGPRIGSFLLQTLNEMQMQPQEQQTARLIVASLLSHCRDLLGSQIQTASRSQALFEAIRDYIDERYASALTRESVAQAFYISPNYLSHLFQKTGAIGFNEYLNHTRLEHAKTLLKGYDLKVKEVAHACGFVDSNYFCRLFRKNTERSPSEYRRQYHSQLTEKPTTPE; 5.79
5. MQFDWSAIWPAIPLLIEGAKMTLWISVLGLAGGLVIGLLAGFARTFGGWIANHVALVFIEVIRGTPIVVQVMFIYFALPMAFNDLRIDPFTAAVVTIMINSGAYIAEITRGAVLSIHKGFREAGLALGLSRWETIRYVILPLALRRMLPPLGNQWIISIKDTSLFIVIGVAELTRQGQEIIAGNFRALEIWSAVAVFYLIITLVLSFILRRLERRMKIL [P0AEQ6]; 13
6. MKMNKSLIVLCLSAGLLASAPGISLADVNYVPQNTSDAPAIPSAALQQLTWTPVDQSKTQTTQLATGGQQLNVPGISGPVAAYSVPANIGELTLTLTSEVNKQTSVFAPNVLILDQNMTPSAFFPSSYFTYQEPGVMSADRLEGVMRLTPALGQQKLYVLVFTTEKDLQQTTQLLDPAKAYAKGVGNSIPDIPDPVARHTTDGLLKLKVKTNSSSSVLVGPLFGSSAPAPVTVGNTAAPAVAAPAPAPVKKSEPMLNDTESYFNTAIKNAVAKGDVDKALKLLDEAERLGSTSARSTFISSVKGKG; 6.15
